# Setup conditions: 308.15 K, Drop volume
Measured quantity: surface tension liquid-gas (mN/m)
Quick reminder: number only, in mN/m, skip the unit.

Here are 4 molecules together with their reported answers.
| Molecule | Unit info | surface tension liquid-gas |
| --- | --- | --- |
| COC(=O)OC [dimethyl carbonate] | mN/m | 26.55 |
| CCOC(=O)OCC [diethyl carbonate] | mN/m | 24.02 |
| CCCCCCCCCC | mN/m | 22.1 |
| Cc1ccc(C)cc1 | mN/m | 26.29 |

Alright, here's another molecule for you.
[ask] Entry CCCCCCCC : reported surface tension liquid-gas = ?
[reply] 19.9
